# Tested on: S. aureus DSM 20231
# Assay info: Bliss interaction score (quartile over a dose matrix) (fitness difference); higher = more antagonism (negative = synergy);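 further: first quartile when negative (synergy) and third quartile when positive (antagonism)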

Molecule	Bliss interaction score
C[C@H]1COc2c(N3CCN(C)CC3)c(F)cc3c(=O)c(C(=O)O)cn1c23 [Levofloxacin] + CC[C@H]1OC(=O)[C@H](C)C(=O)[C@H](C)[C@@H](O[C@@H]2O[C@H](C)C[C@H](N(C)C)[C@H]2O)[C@](C)(OC)C[C@@H](C)C(=O)[C@H](C)[C@H]2N(CCCCn3cnc(-c4cccnc4)c3)C(=O)O[C@]12C [Telithromycin]	0.0361
Cn1nnc(-c2ccc(-c3ccc(N4C[C@H](CO)OC4=O)cc3F)cn2)n1 [Tedizolid] + CN(C)c1cc(NC(=O)CNC(C)(C)C)c(O)c2c1C[C@H]1C[C@H]3[C@H](N(C)C)C(O)=C(C(N)=O)C(=O)[C@@]3(O)C(O)=C1C2=O [Tigecycline]	-0.107
CCN(CC)CCOC(=O)c1ccc(N)cc1 [Procaine] + CN(N=O)C(=O)N[C@@H](C=O)[C@@H](O)[C@H](O)[C@H](O)CO [Streptozotocin]	-0.076
CC1(C)S[C@@H]2[C@H](NC(=O)[C@H](N)c3ccc(O)cc3)C(=O)N2[C@H]1C(=O)O [Amoxicillin] + CCP(CC)CC.CC(=O)OC[C@@H]1[C@H]([C@@H]([C@H]([C@@H](O1)[S-])OC(=O)C)OC(=O)C)OC(=O)C.[Au+] [Auranofin]	0.0373

---

# Test system: S. aureus Newman
# Assay info: Bliss interaction score (quartile over a dose matrix) (fitness difference); higher = more antagonism (negative = synergy)
Endpoint name: Bliss interaction score

Compound	Target or system	Endpoint name	Reported value
CC1(C)S[C@@H]2[C@H](NC(=O)[C@H](N)c3ccc(O)cc3)C(=O)N2[C@H]1C(=O)O [Amoxicillin] + CCP(CC)CC.CC(=O)OC[C@@H]1[C@H]([C@@H]([C@H]([C@@H](O1)[S-])OC(=O)C)OC(=O)C)OC(=O)C.[Au+] [Auranofin]	S. aureus Newman	Bliss interaction score	-0.0817
CN(C)C(=O)C(CCN1CCC(O)(c2ccc(Cl)cc2)CC1)(c1ccccc1)c1ccccc1 [Loperamide] + CN(C)c1cc(NC(=O)CNC(C)(C)C)c(O)c2c1C[C@H]1C[C@H]3[C@H](N(C)C)C(O)=C(C(N)=O)C(=O)[C@@]3(O)C(O)=C1C2=O [Tigecycline]	S. aureus Newman	Bliss interaction score	0.0321
CC1(C)S[C@@H]2[C@H](NC(=O)[C@H](N)c3ccc(O)cc3)C(=O)N2[C@H]1C(=O)O [Amoxicillin] + CO/N=C(\C(=O)N[C@@H]1C(=O)N2C(C(=O)O)=C(COC(N)=O)CS[C@H]12)c1ccco1 [Cefuroxime]	S. aureus Newman	Bliss interaction score	0.097
CO/N=C(\C(=O)N[C@@H]1C(=O)N2C(C(=O)[O-])=C(C[N+]3(C)CCCC3)CS[C@H]12)c1csc(N)n1 [Cefepime] + COc1c(N2C[C@@H]3CCCN[C@@H]3C2)c(F)cc2c(=O)c(C(=O)O)cn(C3CC3)c12 [Moxifloxacin]	S. aureus Newman	Bliss interaction score	0.0732

---

This section presents compounds with their documented Bliss interaction score values.
# System: B. subtilis 168
# Assay info: Bliss interaction score (quartile over a dose matrix) (fitness difference); higher = more antagonism (negative = synergy)

Compound	Target or system	Bliss interaction score
CO/N=C(\C(=O)N[C@@H]1C(=O)N2C(C(=O)[O-])=C(C[N+]3(C)CCCC3)CS[C@H]12)c1csc(N)n1 [Cefepime] + CN(C)C(=O)C(CCN1CCC(O)(c2ccc(Cl)cc2)CC1)(c1ccccc1)c1ccccc1 [Loperamide]	B. subtilis 168	-0.171
CC1(C)S[C@@H]2[C@H](NC(=O)[C@H](N)c3ccc(O)cc3)C(=O)N2[C@H]1C(=O)O [Amoxicillin] + O=C(N[C@H](CO)[C@H](O)c1ccc([N+](=O)[O-])cc1)C(Cl)Cl [Chloramphenicol]	B. subtilis 168	0.122
C[C@H]1COc2c(N3CCN(C)CC3)c(F)cc3c(=O)c(C(=O)O)cn1c23 [Levofloxacin] + CO[C@H]1/C=C/O[C@@]2(C)Oc3c(C)c(O)c4c(O)c(c(/C=N/N5CCN(C)CC5)c(O)c4c3C2=O)NC(=O)/C(C)=C\C=C\[C@H](C)[C@H](O)[C@@H](C)[C@@H](O)[C@@H](C)[C@H](OC(C)=O)[C@@H]1C [Rifampicin]	B. subtilis 168	0.0398
CO/N=C(\C(=O)N[C@@H]1C(=O)N2C(C(=O)[O-])=C(C[N+]3(C)CCCC3)CS[C@H]12)c1csc(N)n1 [Cefepime] + COc1ccc(C[C@H](N)C(=O)N[C@H]2[C@@H](O)[C@H](n3cnc4c(N(C)C)ncnc43)O[C@@H]2CO)cc1 [Puromycin]	B. subtilis 168	0.0941
CO/N=C(\C(=O)N[C@@H]1C(=O)N2C(C(=O)[O-])=C(C[N+]3(C)CCCC3)CS[C@H]12)c1csc(N)n1 [Cefepime] + CN(C)[C@@H]1C(O)=C(C(N)=O)C(=O)[C@@]2(O)C(O)=C3C(=O)c4c(O)ccc(Cl)c4[C@@](C)(O)[C@H]3C[C@@H]12 [Clortetracycline]	B. subtilis 168	0.0651
CC1(C)S[C@@H]2[C@H](NC(=O)[C@H](N)c3ccc(O)cc3)C(=O)N2[C@H]1C(=O)O [Amoxicillin] + COc1cccc2c1C(=O)c1c(O)c3c(c(O)c1C2=O)C[C@@](O)(C(=O)CO)C[C@@H]3O[C@H]1C[C@H](N)[C@H](O)[C@H](C)O1 [Doxorubicin]	B. subtilis 168	0.0583
C[C@H]1COc2c(N3CCN(C)CC3)c(F)cc3c(=O)c(C(=O)O)cn1c23 [Levofloxacin] + Cn1nnc(-c2ccc(-c3ccc(N4C[C@H](CO)OC4=O)cc3F)cn2)n1 [Tedizolid]	B. subtilis 168	0.0224
CN(C)C(=O)C(CCN1CCC(O)(c2ccc(Cl)cc2)CC1)(c1ccccc1)c1ccccc1 [Loperamide] + CN[C@H](CC(C)C)C(=O)N[C@H]1C(=O)N[C@@H](CC(N)=O)C(=O)N[C@H]2C(=O)N[C@H]3C(=O)N[C@H](C(=O)N[C@H](C(=O)O)c4cc(O)cc(O)c4-c4cc3ccc4O)[C@H](O)c3ccc(c(Cl)c3)Oc3cc2cc(c3O[C@@H]2O[C@H](CO)[C@@H](O)[C@H](O)[C@H]2O[C@H]2C[C@](C)(N)[C@H](O)[C@H](C)O2)Oc2ccc(cc2Cl)[C@H]1O [Vancomycin]	B. subtilis 168	-0.0281
